Experiment: in vivo
Conditions: cynomolgus monkey, po, 3 mg/kg
Description: AUC (0 to infinity) in cynomolgus monkey at 3 mg/kg, po
measured_property: AUC(0-inf) (µM·h)
Unit µM·h implied. Number only.

q: So what's the measured AUC(0-inf) for this one? CCCCc1nc(=O)c(S(=O)(=O)c2ccc(C3CC3)cc2)c(O)n1-c1c(OC)cccc1OC
a: 4.7

---

Experiment: Permeability of the compound at pH 7.4 by PAMPA
Type: ADME
Settings: read-out: permeability
measured_property: Papp (×10⁻⁶ cm/s)
Unit ×10⁻⁶ cm/s implied. Number only.

> print(dat)
                                test.smiles  readout.units  recorded.result
1  CCCCc1nc(=O)c(S(=O)(=O)c2ccccc2)c(O)n1-c1c(OC)cccc1OC     ×10⁻⁶ cm/s             0.15
2  CCCCc1nc(=O)c(S(=O)(=O)c2ccc(-c3cccnc3)cc2)c(O)n1-c1c(OC)cccc1OC     ×10⁻⁶ cm/s              0.6
3  CCCCc1[nH]c(=O)c(S(=O)(=O)c2ccc(-n3cc(Cl)ccc3=O)cc2)c(O)c1-c1c(OC)cccc1OC     ×10⁻⁶ cm/s              2.2

Turning now to a further record.
q: So what's the measured Papp for this one? CCCCc1nc(=O)c(S(=O)(=O)c2ccc(C3CC3)cc2)c(O)n1-c1c(OC)cccc1OC
a: 2.2

---

Target: Apelin receptor (Mus musculus, UniProt Q9WV08)
Sequence (Q9WV08 whole entry): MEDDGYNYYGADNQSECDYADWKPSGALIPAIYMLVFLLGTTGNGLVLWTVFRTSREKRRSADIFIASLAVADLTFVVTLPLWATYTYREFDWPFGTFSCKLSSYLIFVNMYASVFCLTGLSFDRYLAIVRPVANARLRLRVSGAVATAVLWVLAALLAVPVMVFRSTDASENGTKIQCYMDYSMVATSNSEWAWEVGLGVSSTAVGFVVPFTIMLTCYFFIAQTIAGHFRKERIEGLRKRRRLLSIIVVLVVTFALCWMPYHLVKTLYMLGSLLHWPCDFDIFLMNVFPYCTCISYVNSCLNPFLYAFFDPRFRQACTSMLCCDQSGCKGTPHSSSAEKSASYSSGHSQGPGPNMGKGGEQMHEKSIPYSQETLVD
Assay: Agonist activity at mouse APJ receptor assessed as effect on cAMP accumulation by cAMP-Glo assay
measured_property: EC50 (nM)
Unit nM implied. Number only.

> print(dat)
                                test.smiles  readout.units  recorded.result
1  CCCCc1nc(=O)c(S(=O)(=O)c2ccc(-n3ccccc3=O)cc2)c(O)n1-c1c(OC)cccc1OC             nM             0.03

q: Hello, I am looking for reported EC50 with Apelin receptor (Mus musculus, UniProt Q9WV08) for CCCCc1[nH]c(=O)c(S(=O)(=O)c2ccc(-c3cccnc3OC)cc2)c(O)c1-c1c(OC)cccc1OC . Could you help?
a: 0.2

q: Now try CCCCc1nc(=O)c(S(=O)(=O)c2ccc(C)cc2)c(O)n1-c1c(OC)cccc1OC .
a: 0.3

q: Now try CCCCc1[nH]c(=O)c(S(=O)(=O)c2ccc(-c3ccc(F)cc3)cc2)c(O)c1-c1c(OC)cccc1OC .
a: 34

---

Assay: Cmax in cynomolgus monkey at 3 mg/kg, po
Format: ADME, organism-based, Macaca fascicularis
Set-up: route oral, dose 3 mg/kg
Settings: in vivo
measured_property: Cmax
Respond with the figure and its unit, in that order.

q: So what's the measured Cmax for this one? CCCCc1nc(=O)c(S(=O)(=O)c2ccc(C3CC3)cc2)c(O)n1-c1c(OC)cccc1OC
a: 1500 nM

---

Measured EC50 of individual entries
Target: Apelin receptor (Homo sapiens, UniProt P35414)
Sequence (P35414 whole entry): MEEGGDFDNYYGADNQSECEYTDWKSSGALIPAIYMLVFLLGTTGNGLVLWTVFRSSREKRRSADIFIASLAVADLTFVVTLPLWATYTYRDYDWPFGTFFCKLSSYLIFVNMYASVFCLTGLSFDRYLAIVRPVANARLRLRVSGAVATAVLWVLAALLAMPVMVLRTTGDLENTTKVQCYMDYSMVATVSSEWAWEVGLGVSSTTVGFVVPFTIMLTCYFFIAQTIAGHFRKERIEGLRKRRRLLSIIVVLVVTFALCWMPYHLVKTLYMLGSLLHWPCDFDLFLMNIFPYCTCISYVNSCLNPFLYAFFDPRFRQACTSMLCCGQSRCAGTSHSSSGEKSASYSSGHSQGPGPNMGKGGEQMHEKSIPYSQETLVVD
Test: Agonist activity at human APJ receptor assessed as effect on cAMP accumulation by cAMP-Glo assay
Unit nM implied. Number only.

Use the examples below as a reference point.
> print(dat)
                                test.smiles  measured.property  recorded.result
1  COc1cccc(OC)c1-n1c(COC(C)C)nc(=O)c(S(=O)(=O)c2ccc(-c3ccc(F)nc3)cc2)c1O               EC50             0.01
2  CCCCc1[nH]c(=O)c(S(=O)(=O)c2ccc(-c3ccc(F)cc3)cc2)c(O)c1-c1c(OC)cccc1OC               EC50               17
3  CCCCc1[nH]c(=O)c(S(=O)(=O)c2ccc(-c3ccncc3C)cc2)c(O)c1-c1c(OC)cccc1OC               EC50             0.04
4  CCCCc1[nH]c(=O)c(S(=O)(=O)c2ccc(-n3ccccc3=O)cc2)c(O)c1-c1c(OC)cccc1OC               EC50              0.5
5  CCCCc1nc(=O)c(S(=O)(=O)c2ccc(-n3ccccc3=O)cc2)c(O)n1-c1c(OC)cccc1OC               EC50             0.02

q: So what's the measured EC50 for this one? CCCCc1[nH]c(=O)c(S(=O)(=O)c2ccc(-c3cccnc3OC)cc2)c(O)c1-c1c(OC)cccc1OC
a: 0.03

q: Now try CCCCc1nc(=O)c(S(=O)(=O)c2ccc(-c3ccc(F)nc3)cc2)c(O)n1-c1c(OC)cccc1OC .
a: 0.002

q: Now try CCCCc1nc(=O)c(S(=O)(=O)c2ccc(C)cc2)c(O)n1-c1c(OC)cccc1OC .
a: 0.2

---

Measured remaining at 10 min of individual entries
Experiment: Metabolic stability in human liver microsomes assessed as parent compound remaining incubated for 10 mins in presence of NADPH
Assay type: ADME, Microsome
Settings: read-out: Stabilty
Unit % implied. Number only.

Use the examples below as a reference point.
> print(dat)
                                test.smiles  recorded.result
1  CCCCc1nc(=O)c(S(=O)(=O)c2ccc(C3CC3)cc2)c(O)n1-c1c(OC)cccc1OC               95
2  CCCCc1nc(=O)c(S(=O)(=O)c2ccc(-n3ccccc3=O)cc2)c(O)n1-c1c(OC)cccc1OC               87
3  COc1cccc(OC)c1-n1c(CCC(C)C)nc(=O)c(S(=O)(=O)c2ccc(-c3ccc(F)nc3)cc2)c1O               89
4  CCCCc1[nH]c(=O)c(S(=O)(=O)c2ccc(-n3cc(Cl)ccc3=O)cc2)c(O)c1-c1c(OC)cccc1OC               97

q: So what's the measured remaining at 10 min for this one? CCCCc1nc(=O)c(S(=O)(=O)c2ccc(-c3cccnc3OC)cc2)c(O)n1-c1c(OC)cccc1OC
a: 97

q: Now try CCCCc1[nH]c(=O)c(S(=O)(=O)c2ccc(-c3ccncc3C)cc2)c(O)c1-c1c(OC)cccc1OC .
a: 80

q: Now try CCCCc1nc(=O)c(S(=O)(=O)c2ccc(-c3ccnc(NC(=O)C4CC4)c3)cc2)c(O)n1-c1c(OC)cccc1OC .
a: 84

---

Target: Apelin receptor (Homo sapiens, UniProt P35414)
Assay: Agonist activity at human APJ receptor assessed as effect on cAMP accumulation by cAMP-Glo assay
measured_property: EC50 (nM)
Unit nM implied. Number only.

> print(dat)
                                test.smiles                                    system  measured.property  recorded.result
1  CCCCc1[nH]c(=O)c(S(=O)(=O)c2ccc(-n3cc(Cl)ccc3=O)cc2)c(O)c1-c1c(OC)cccc1OC  Apelin receptor (Homo sapiens, UniProt P35414)               EC50             0.03
2  CCCCc1nc(=O)c(S(=O)(=O)c2ccc(-c3cccnc3OC)cc2)c(O)n1-c1c(OC)cccc1OC  Apelin receptor (Homo sapiens, UniProt P35414)               EC50             0.01
3  CCCCc1nc(=O)c(S(=O)(=O)c2ccc(-c3ccnc(NC(=O)C4CC4)c3)cc2)c(O)n1-c1c(OC)cccc1OC  Apelin receptor (Homo sapiens, UniProt P35414)               EC50             0.03
4  CCCCc1[nH]c(=O)c(S(=O)(=O)c2ccc(-c3ccc(F)nc3)cc2)c(O)c1-c1c(OC)cccc1OC  Apelin receptor (Homo sapiens, UniProt P35414)               EC50              0.7
5  CCCCc1nc(=O)c(S(=O)(=O)c2ccc(C3CC3)cc2)c(O)n1-c1c(OC)cccc1OC  Apelin receptor (Homo sapiens, UniProt P35414)               EC50             0.02
6  CCCCc1nc(=O)c(S(=O)(=O)c2ccccc2)c(O)n1-c1c(OC)cccc1OC  Apelin receptor (Homo sapiens, UniProt P35414)               EC50              0.5
7  CCCCc1nc(=O)c(S(=O)(=O)c2ccc(-c3ccc(F)cc3)cc2)c(O)n1-c1c(OC)cccc1OC  Apelin receptor (Homo sapiens, UniProt P35414)               EC50             0.08

q: So what's the measured EC50 for this one? COc1cccc(OC)c1-n1c(C2CCCC2)nc(=O)c(S(=O)(=O)c2ccc(C3CC3)cc2)c1O
a: 0.3
